// data source = the supplement of paper PMC10899765

# Test system: MCF10A
# experiment: 5+ nucleoli phenotype percent effect, hitpick validation (relative to siNT 0% and siKIF11 100%); higher = more cells with five or more nucleoli
# recorded_conditions: 20 nM; 72 h
property_label: 5+ nucleoli phenotype percent effect
Answer format: number, then unit.

Some solved cases for reference:
GAGGGCGGGUGGAGGAGGA [hsa-miR-3141]: -4.23%
UAAGGCACGCGGUGAAUGCC [hsa-miR-124-3p]: 18.1%

Give me 5+ nucleoli phenotype percent effect for each of these sequences, listed below.
1. CGGCGGGGACGGCGAUUGGUC [hsa-miR-1908-5p]
2. UUGCACUUGUCUCAGUGA [hsa-miR-4325]
3. AAAAGGCAUUGUGGUUUUUG [hsa-miR-548an]
4. UGGAGUCCAGGAAUCUGCAUUUU [hsa-miR-1289]

stdout:
["-7.82%", "3.45%", "-8.86%", "-9.57%"]

# batch: return 5+ nucleoli phenotype percent effect for each of the 6 sequences below
1. CAGGUCGUCUUGCAGGGCUUCU [hsa-miR-431-3p]
2. AAGCAGCUGCCUCUGAGGC [hsa-miR-646]
3. UGAAGGUCUACUGUGUGCCAGG [hsa-miR-493-3p]
4. AGUUUUGCAGGUUUGCAUCCAGC [hsa-miR-19b-1-5p]
5. UUUGGGACUGAUCUUGAUGUCU [hsa-miR-3913-5p]
6. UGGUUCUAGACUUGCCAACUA [hsa-miR-182-3p]

stdout:
1: -15.2%; 2: -14.4%; 3: 4.11%; 4: -19.8%; 5: 61%; 6: -12.4%

----------
# Tested on: MCF10A
# experiment: percent viability (nuclei count relative to siNT); higher = more viable cells
# recorded_conditions: 20 nM; 72 h
Grouping by measured percent viability is done with the following cut points: low end = under 60%, middle = from 60% up to 90%, high end = 90% and over

AUAUAAUACAACCUGCUAAGUG [hsa-miR-374b-5p]: high end
GUGAAUUACCGAAGGGCCAUAA [hsa-miR-183-3p]: low end

stdin: Tag the class for CCUGUGCUCCCAGGGCCUCGC [hsa-miR-5008-3p]
stdout: middle

stdin: Okay, and GCCCGAGAGGAUCCGUCCCUGC [hsa-miR-4740-3p] ?
stdout: middle

stdin: Record: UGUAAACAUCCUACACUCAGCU [hsa-miR-30b-5p]
stdout: high end

----------
# Tested on: MCF10A
# experiment: one-nucleolus phenotype percent effect (relative to siNT 0% and siNOL11 100%); higher = more cells with one nucleolus (ribosome biogenesis inhibition)
# recorded_conditions: 20 nM; 72 h
property_label: one-nucleolus phenotype percent effect

UCAGGCAGUGUGGGUAUCAGAU [hsa-miR-4692]: 23.2%
AAGGGGCUGGGGGAGCACA [hsa-miR-6085]: 33.3%
UGCAUGACCCUUCCCUCCCCAC [hsa-miR-6797-3p]: 1.95%
AAAGGUGCUCAAAUUAGACAU [hsa-miR-4735-3p]: 43%
CUGCAAUGUAAGCACUUCUUAC [hsa-miR-106a-3p]: 18.7%

API: the following record is the query input.
stdin: Reported one-nucleolus phenotype percent effect for UGGGGGGACAGGAUGAGAGGCUGU [hsa-miR-6795-5p] : what is it?
stdout: 28.6%
